test: protein stability index of a GFP-peptide fusion (yeast GPS) (PSI 1-4); higher = more stable; sorted into four equal gates, so the index is relative within each strain; settings: san1∆
Reported protein stability index by item:
Measure name: protein stability index

                       sequence_code  readout_number
 0        YDPSIGIFGMDFYVVMN [RPL11A]            2.31
 1          GIFIKILNDSLIYHLKD [IRR1]            1.69
 2          TEGRSRDGGLRLGEMER [RET1]            1.49
 3          FTNPSVDIQIINQYQLL [SWI1]            1.43
 4          EKIMENKYPELLGKDNE [AAR2]            3.24
 5          VNTEKKTIEVTAEINCF [RPN3]            1.78
 6          LISDSNINNSSVAEKEE [SWI3]            1.56
 7          HTSSNSREIAQPSSSRY [SMB1]            3.02
 8          NLGYCNDKLIVDNDNWV [RPN1]            2.32
 9          CLDRCKEQYNRYRDLMI [MTR3]            2.69
10          FDKDLERDTFSDFTFPE [DIS3]            1.24
11         SLINSHLKILASSNFPF [RPC82]            2.28
12          FSYFFESFESYHNLTTH [RPN6]            2.85
13          AKKRKTLILIQNPENLL [SIR3]            3.11
14  SHNENKMDFSSKEGQYK [YIL149C/MLP2]            3.25
15          VVGTETRVNAQLESYEY [RRI1]            3.33
16          AQDEVFSLAFSPNRYWL [ASC1]            2.54
17          FNSVKSFDEWFNTPFAN [SNF2]            3.43
18         GEVLGITRFGLSKMRDS [RPO31]            3.19
19          KDFTNKNLIQLISLKLL [SRB8]            1.66
20          SFFNISPDAPKEIMDKI [SIN4]               3
21          RITDASLFQLSKLGKNL [GRR1]            2.12
22          ANYIKERTKNAQFIVIS [SMC4]            1.49
23          LNTFGSKICLSHFSLDQ [ITC1]            2.09
24          VIEQCYLKFIPLKRAIW [SRB8]             1.4
25          ELGVSIYDFPGTPEATK [NUT2]            3.06
26         MSDSIISFAAFILADAG [RPP1B]            1.31
27          GEDFMEVDYEDKDNPVD [SRB4]            3.46
28          RENLHILNEVFTNPSIV [RRP6]             2.5
29          ILSVKLAELINMTTIAD [SRB6]            2.75
30          KIITSRPLQKIMLLQLE [SIN4]               2

====

test: protein stability index of a GFP-peptide fusion (yeast GPS) (PSI 1-4); higher = more stable; sorted into four equal gates, so the index is relative within each strain; details: pdr5∆
# if value of protein stability index reaches 3, tag True; if it stays below, tag False

>>> df
                sequence_code    cat
 0   IDYSNSQIRLYAKFKRN [RGR1]  False
 1  NQMKVAPIPKQLLQRIP [GAL11]  False
 2  TKYFEPTSTENNKKVVG [ECM29]   True
 3  DSVLQLASFEKTTDHLF [RPO31]  False
 4   AAGNASSLPPGEILLPD [SNF5]   True
 5   SQFNGSGNGSNPNTNTN [PGD1]  False
 6  WRILKEDYAIVTKGGTV [PRP28]   True
 7  VFSALKNLISRINTLPQ [ECM29]  False
 8   EEERRKKRESGVEEEEE [SNF2]   True
 9  VDPIQSVKGKVVIDAFR [RPN11]  False
10   SKTGIIAYSDSQSSNAN [SIN4]  False
11   YSLASVTLKGAKALESL [POP1]  False
12   TFENINSLFYLKWSACT [IRR1]  False
13   EKWISSKNSKLSIICVG [SIR3]  False

====

// reported protein stability index for each item listed
assay: protein stability index of a GFP-peptide fusion (yeast GPS) (PSI 1-4); higher = more stable; sorted into four equal gates, so the index is relative within each strain; settings: doa10∆
Measure name: protein stability index

>>> df
                        sequence_code  result
 0  QLKTGLAAIVSTVIEEF [YGL172W/NUP49]    2.93
 1         IIAVKGSGSRLNRLPAA [RPL23A]    1.42
 2          KVLLDSKDVQQIDYKLE [RPS7A]    2.69
 3           IHEIRLNTLNNVVEIWV [SIR3]    1.38
 4           FERLVPRGTAKLIIHRK [SMC3]    3.01
 5           SRGIVIGSGAMSPLECR [RPP1]    1.69
 6           EPAEANEENDLDVDPAK [RPB2]     3.3
 7           SGQKTNRQVMHKMGVER [SIR3]    3.08
 8           PELFESLGIAQPKGVIL [RPT6]    2.56
 9           LDRELLKPSMSVALHRH [RPT3]    2.98
10           IDYSNSQIRLYAKFKRN [RGR1]     3.1
11         ALVAGIERYPSKVTKKH [RPL27B]    1.86
12           VVLSFSGLNADSRILIE [PRE6]    2.87
13           DFRTRYIDIRTNNVLRK [MTW1]    2.45

====

assay: protein stability index of a GFP-peptide fusion (yeast GPS) (PSI 1-4); higher = more stable; sorted into four equal gates, so the index is relative within each strain; details: pdr5∆
Each entry below carries its reported protein stability index.
Measure name: protein stability index

In [3]: df
Out[3]:
                        sequence_code  readout_number
0  SSEILSYLSNSLDTSAS [YML103C/NUP188]             2.7
1            PQKPVPLNVLQDQYKEG [SNF2]            3.33
2            HGKPTKGSSLASAASEA [SSN8]            2.42
3            ASKKFGKICLILTRLNG [SSN2]            2.14
4            ETSSFGSMFSGDNTSDV [RRI1]            3.08
5           AFDVDRAKSCGVDAMSV [RPL1A]            2.73
6            VGLVSPSFMLKHHQLFY [RPN1]             1.7

====

assay: protein stability index of a GFP-peptide fusion (yeast GPS) (PSI 1-4); higher = more stable; sorted into four equal gates, so the index is relative within each strain; conditions: san1∆
protein stability index overview
Measure name: protein stability index

In [3]: df
Out[3]:
               sequence_code  readout_number
0  LSKLEKALDRHEFFIAN [SRP68]            2.55
1  YKIKGRNNSKSVLLKKL [SRP72]            2.42
2   LEGNDIHALAAKLLQEN [FAS1]            2.77
3   FHIACSVGNLEVVKSLY [NAS6]            2.45
4  WIRLRTNNTIRYNAKRR [RPL39]            2.93
5   KNTIDFERFPSPSTSAN [RPN4]            2.72
6  NNVYFAAGALFVSSGFD [RPN14]            1.92
7   KMVKAWNLNQFQIEADF [ASC1]            2.58
